FYI, the data here is from ChEMBL document CHEMBL4387740.

test: Intrinsic clearance in human liver microsomes; format: ADME, Microsome; details: read-out: CLH
property.name: microsomal CLint (µL/min/mg)

compound	readout.relation	value.reported
O=C(NC1CC1)C(=O)C(Cc1ccccc1)NC(=O)[C@H]1CCC(=O)N1Cc1ccccc1OC(F)(F)F (stereo partly drawn)	<	1
O=C(NCc1ccc(F)cc1)C(=O)C(Cc1ccccc1)NC(=O)[C@H]1CCC(=O)N1Cc1ccccc1 (stereo partly drawn)	>	70
NC(=O)C(=O)C(Cc1ccccc1)NC(=O)[C@H]1CCC(=O)N1Cc1ccccc1 (mixture of isomers)	=	27
O=C(NC1CC1)C(=O)C(Cc1ccccc1)NC(=O)[C@H]1CCC(=O)N1C1Cc2ccccc2C1 (stereo partly drawn)	=	2
O=C(NC1CCC1)C(=O)C(Cc1ccccc1)NC(=O)[C@H]1CCC(=O)N1Cc1ccccc1 (stereo partly drawn)	=	37
O=C(Nc1ccccc1)C(=O)C(Cc1ccccc1)NC(=O)[C@H]1CCC(=O)N1Cc1ccccc1 (stereo partly drawn)	>	70
O=C(NC1CC1)C(=O)C(Cc1ccccc1)NC(=O)[C@H]1CCC(=O)N1Cc1ccccc1C(F)(F)F (stereo partly drawn)	>	1
O=C(NC1CC1)C(=O)C(Cc1ccccc1)NC(=O)[C@H]1CCC(=O)N1Cc1ccccc1 (stereo partly drawn)	=	28

###

species: Homo sapiens; assay: Selectivity ratio, ratio of Ki for CatK (unknown origin) to Ki for Cal1 (unknown origin)

compound	readout.relation	Selectivity ratio
NC(=O)C(=O)C(Cc1ccccc1)NC(=O)[C@H]1CCC(=O)N1Cc1ccccc1OC(F)(F)F (mixture of isomers)	=	33
NC(=O)C(=O)C(Cc1ccccc1)NC(=O)[C@@H]1CCC(=O)N1Cc1ccccc1 (mixture of isomers)	=	17
NC(=O)C(=O)C(Cc1ccccc1)NC(=O)[C@H]1CCC(=O)N1Cc1cccc(OC(F)(F)F)c1 (mixture of isomers)	=	61
CC(C)(C)CN1C(=O)CC[C@@H]1C(=O)NC(Cc1ccccc1)C(=O)C(N)=O (mixture of isomers)	=	7
O=C(NC1CC1)C(=O)C(Cc1ccccc1)NC(=O)[C@H]1CCC(=O)N1Cc1ccccc1C(F)(F)F (some centres not stated)	=	109
NC(=O)C(=O)C(Cc1ccccc1)NC(=O)[C@H]1CCC(=O)N1CC1CCCCC1 (mixture of isomers)	<	1
O=C(NC1CC1)C(=O)C(Cc1ccccc1)NC(=O)[C@H]1CCC(=O)N1Cc1ccccc1 (some centres not stated)	=	74
CN1C[C@H](C(=O)NC(Cc2ccccc2)C(=O)C(N)=O)N(Cc2ccccc2)C1=O (mixture of isomers)	=	4
O=C(NC1CC1)C(=O)C(Cc1ccccc1)NC(=O)[C@H]1CCC(=O)N1Cc1ccccc1OC(F)(F)F (some centres not stated)	>	200
NC(=O)C(=O)C(Cc1ccccc1)NC(=O)[C@H]1CCC(=O)N1Cc1ccccc1 (mixture of isomers)	=	22
O=C(NC1CCC1)C(=O)C(Cc1ccccc1)NC(=O)[C@H]1CCC(=O)N1Cc1ccccc1 (some centres not stated)	=	27
CCCCC(NC(=O)[C@H]1CCC(=O)N1Cc1ccccc1)C(=O)C(N)=O (mixture of isomers)	=	6
O=C(Nc1ccccc1)C(=O)C(Cc1ccccc1)NC(=O)[C@H]1CCC(=O)N1Cc1ccccc1 (some centres not stated)	=	88
O=C(NCc1ccc(F)cc1)C(=O)C(Cc1ccccc1)NC(=O)[C@H]1CCC(=O)N1Cc1ccccc1 (some centres not stated)	=	70
Cc1ccc(S(=O)(=O)N2CCC[C@@H]2C(=O)NC(Cc2ccccc2)C(=O)C(N)=O)cc1 (mixture of isomers)	=	14
NC(=O)C(=O)C(Cc1ccccc1)NC(=O)c1cccc(=O)n1Cc1ccccc1 (configuration not stated)	=	2
NC(=O)C(=O)C(Cc1ccccc1)NC(=O)[C@H]1CCC(=O)N1Cc1ccccc1C(F)(F)F (mixture of isomers)	=	102
C[C@H]1C[C@H](C(=O)NC(Cc2ccccc2)C(=O)C(N)=O)N(Cc2ccccc2)C1=O (mixture of isomers)	=	1
NC(=O)C(=O)C(Cc1ccccc1)NC(=O)[C@H]1CCC(=O)N1Cc1cccc(C(F)(F)F)c1 (mixture of isomers)	=	84
NC(=O)C(=O)C(Cc1ccccc1)NC(=O)C1CCS(=O)(=O)N1Cc1ccccc1 (mixture of isomers)	=	2
COc1cccc(C(F)(F)F)c1CN1C(=O)CC[C@@H]1C(=O)NC(Cc1ccccc1)C(=O)C(N)=O (mixture of isomers)	=	120
O=C(NC1CC1)C(=O)C(Cc1ccccc1)NC(=O)[C@H]1CCC(=O)N1Cc1ccccc1Cl (some centres not stated)	=	93
NC(=O)C(=O)C(Cc1ccccc1)NC(=O)c1cccnc1-n1ccc(-c2ccc(F)cc2)n1 (configuration not stated)	=	18
NC(=O)C(=O)C(Cc1ccccc1)NC(=O)[C@H]1CCC(=O)N1c1ccccc1 (mixture of isomers)	=	6
NC(=O)C(=O)C(Cc1ccccc1)NC(=O)[C@H]1CCCC(=O)N1Cc1ccccc1 (mixture of isomers)	=	4
NC(=O)C(=O)C(Cc1ccccc1)NC(=O)[C@H]1CCC(=O)N1Cc1ccncc1 (mixture of isomers)	=	13
CCNC(=O)C(=O)C(Cc1ccccc1)NC(=O)[C@H]1CCC(=O)N1Cc1ccccc1 (mixture of isomers)	=	85

###

test: AUC (0 to infinity) in Sprague-Dawley rat at 2 mg/kg, iv; format: ADME, organism-based; design: dose 2 mg/kg, time infinity, route intravenous; conditions: in vivo

compound	AUC(0-inf) [ng·h/mL]
O=C(NC1CC1)C(=O)C(Cc1ccccc1)NC(=O)[C@H]1CCC(=O)N1Cc1ccccc1 (stereo partly specified)	1930

###

Here, each record is paired with measured Selectivity ratio data.
experiment: Selectivity ratio, ratio of Ki for CatS (unknown origin) to Ki for Cal1 (unknown origin); details: Homo sapiens

compound	Selectivity ratio
NC(=O)C(=O)C(Cc1ccccc1)NC(=O)[C@H]1CCC(=O)N1c1ccccc1 (mixture of isomers)	11
NC(=O)C(=O)C(Cc1ccccc1)NC(=O)[C@H]1CCC(=O)N1CC1CCCCC1 (mixture of isomers)	5
NC(=O)C(=O)C(Cc1ccccc1)NC(=O)[C@H]1CCC(=O)N1Cc1ccccc1 (mixture of isomers)	103
O=C(NC1CC1)C(=O)C(Cc1ccccc1)NC(=O)[C@H]1CCC(=O)N1Cc1ccccc1Cl (stereo partly specified)	> 130
O=C(NCc1ccc(F)cc1)C(=O)C(Cc1ccccc1)NC(=O)[C@H]1CCC(=O)N1Cc1ccccc1 (stereo partly specified)	286
NC(=O)C(=O)C(Cc1ccccc1)NC(=O)c1cccnc1-n1ccc(-c2ccc(F)cc2)n1 (stereo unspecified)	> 300
NC(=O)C(=O)C(Cc1ccccc1)NC(=O)[C@H]1CCC(=O)N1Cc1cccc(OC(F)(F)F)c1 (mixture of isomers)	76
CC(C)(C)CN1C(=O)CC[C@@H]1C(=O)NC(Cc1ccccc1)C(=O)C(N)=O (mixture of isomers)	7
O=C(Nc1ccccc1)C(=O)C(Cc1ccccc1)NC(=O)[C@H]1CCC(=O)N1Cc1ccccc1 (stereo partly specified)	> 400
NC(=O)C(=O)C(Cc1ccccc1)NC(=O)[C@H]1CCC(=O)N1Cc1ccccc1OC(F)(F)F (mixture of isomers)	127
NC(=O)C(=O)C(Cc1ccccc1)NC(=O)[C@H]1CCC(=O)N1Cc1cccc(C(F)(F)F)c1 (mixture of isomers)	85
CN1C[C@H](C(=O)NC(Cc2ccccc2)C(=O)C(N)=O)N(Cc2ccccc2)C1=O (mixture of isomers)	2
NC(=O)C(=O)C(Cc1ccccc1)NC(=O)c1cccc(=O)n1Cc1ccccc1 (stereo unspecified)	13
CCCCC(NC(=O)[C@H]1CCC(=O)N1Cc1ccccc1)C(=O)C(N)=O (mixture of isomers)	41
O=C(NC1CC1)C(=O)C(Cc1ccccc1)NC(=O)[C@H]1CCC(=O)N1Cc1ccccc1OC(F)(F)F (stereo partly specified)	> 200
CCNC(=O)C(=O)C(Cc1ccccc1)NC(=O)[C@H]1CCC(=O)N1Cc1ccccc1 (mixture of isomers)	60

###

species: Homo sapiens; experiment: Selectivity ratio, ratio of Ki for CatB (unknown origin) to Ki for Cal1 (unknown origin)
Here, each record is paired with measured Selectivity ratio data.
property.name: Selectivity ratio

compound	property.name	value.reported
O=C(Nc1ccccc1)C(=O)C(Cc1ccccc1)NC(=O)[C@H]1CCC(=O)N1Cc1ccccc1 (stereo partly drawn)	Selectivity ratio	296
NC(=O)C(=O)C(Cc1ccccc1)NC(=O)[C@H]1CCC(=O)N1CC1CCCCC1 (mixture of isomers)	Selectivity ratio	8
NC(=O)C(=O)C(Cc1ccccc1)NC(=O)[C@H]1CCC(=O)N1Cc1ccncc1 (mixture of isomers)	Selectivity ratio	16

###

experiment: AUC (0 to infinity) in CD-1 mouse at 2 mg/kg, iv; type: ADME, organism-based; design: dose 2 mg/kg, route intravenous, time infinity; conditions: in vivo

compound	AUC(0-inf)
O=C(NC1CC1)C(=O)C(Cc1ccccc1)NC(=O)[C@H]1CCC(=O)N1Cc1ccccc1 (stereo partly specified)	15400 ng·h/mL

###

test: Oral bioavailability in CD-1 mouse at 2 mg/kg; type: ADME, organism-based; conditions: in vivo

compound	result.unit	bioavailability
O=C(NC1CC1)C(=O)C(Cc1ccccc1)NC(=O)[C@H]1CCC(=O)N1Cc1ccccc1 (stereo partly specified)	%	93.5
